Attribution: ChEMBL document CHEMBL3045519

# Test system: Avena fatua
# testProtocol: Post-emergence herbicidal activity against Avena fatua under greenhouse conditions at 2.5 g/a at 1.5-leaf stage measured after 3 weeks by pot test
# Assay type: functional, organism-based
Active and inactive are the calls of the source. No cut-off for these calls is given here.
Hi there, use one of these labels in your reply, thanks! active, inactive

q: // param item: CC(Oc1ccc(Oc2ncc(Cl)cc2Cl)cc1)C(=O)NCCC(=O)O (stereo not given) ; yields the recorded call
a: active

q: Given COC(=O)C(C)Oc1ccc(Oc2ccc(Cl)cc2Cl)cc1 (stereo not given) , state the outcome it received in this test.
a: active

q: What call does the record list for CC(Oc1ccc(Oc2ncc(Cl)cc2Cl)cc1)C(=O)O (stereo not given) ?
a: active

q: Short answer needed: outcome of this test for CC(Oc1ccc(Oc2cnc3cc(Cl)ccc3n2)cc1)C(=O)O (stereo not given) ?
a: active

q: Hi, sorry to bother you, what did the test record for CCNC(=O)CNC(=O)C(C)Oc1ccc(Oc2ncc(Cl)cc2Cl)cc1 (stereo not given) ?
a: active

q: Could you please tell me the result logged for CNC(=O)CNC(=O)C(C)Oc1ccc(Oc2ncc(Cl)cc2Cl)cc1 (stereo not given) in this assay?
a: active

q: // param item: CC(Oc1ccc(Oc2ccc(C(F)(F)F)cn2)cc1)C(=O)O (stereo not given) ; yields the recorded call
a: active

q: Outcome logged for CC(Oc1ccc(Oc2ccc(C(F)(F)F)cn2)cc1)C(=O)NOCC(=O)O (stereo not given) in this assay:
a: active

q: Tell me the recorded outcome of this test for CC(Oc1ccc(Oc2ccc(Cl)cc2Cl)cc1)C(=O)O (stereo not given) .
a: active

q: I would be grateful if you could indicate the recorded call for `O=C(O)CONC(=O)COc1ccc(Oc2ncc(Cl)cc2Cl)cc1` .
a: inactive
